# target_of_assay: T1, human GIP receptor (human, UniProt P48546 22-466)
# T1 sequence (looked up): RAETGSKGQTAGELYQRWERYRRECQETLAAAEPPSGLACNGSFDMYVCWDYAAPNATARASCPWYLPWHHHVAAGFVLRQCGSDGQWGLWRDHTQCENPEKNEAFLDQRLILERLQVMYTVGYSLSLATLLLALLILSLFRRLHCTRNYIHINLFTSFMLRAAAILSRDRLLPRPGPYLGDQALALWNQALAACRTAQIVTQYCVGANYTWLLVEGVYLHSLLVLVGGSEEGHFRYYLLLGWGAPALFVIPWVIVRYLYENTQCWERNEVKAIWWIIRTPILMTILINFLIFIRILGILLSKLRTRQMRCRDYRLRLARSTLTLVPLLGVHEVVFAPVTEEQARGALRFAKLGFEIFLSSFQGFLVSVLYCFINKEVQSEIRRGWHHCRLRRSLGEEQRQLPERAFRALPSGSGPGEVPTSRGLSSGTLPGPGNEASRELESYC
# test: cell-based or functional assay
Bridges are numbered along the chain shown (N, C = ends). Where no end group is shown, it is not given here. [ ]: non-standard residue; d: D form. The star is where a group is joined. Acetyl(2-(4-imidazolyl)) = O=C(Cc1c[nH]cn1)*; Aib = CC(C)(N)C(=O)O
Values of in vitro Activity Compared to Native Peptide (%), vs GIP strictly less than 10% map to met, and values of at least 10% map to not met.

{"binder": "HGQGTFTSDCSKYMDGQAAQDFVAWLLAGGPSSGAPPPS (not fully specified (C-terminus)) [triple agonist of SEQ ID NO: 45]", "label": "met"}

Incoming: in vitro Activity Compared to Native Peptide (%), vs GIP strictly < 10% for this binder? [Acetyl(2-(4-imidazolyl))][Aib]QGTFTSDYSIAMDEIHQKDFVNWLLNTC (bridge 16-20; not fully specified (C-terminus)) [triple agonist of SEQ ID NO: 87]
Outgoing: met

Incoming: in vitro Activity Compared to Native Peptide (%), vs GIP strictly < 10% for this binder? Y[Aib]QGTFTSDYSKYLDEKRAKEFVQWLLDHHPSSGQPPPSC-NH2 (bridge 16-20) [triple agonist of SEQ ID NO: 42]
Outgoing: met

Incoming: in vitro Activity Compared to Native Peptide (%), vs GIP strictly < 10% for this binder? [Acetyl(2-(4-imidazolyl))][Aib]EGTFTSDYSIAMDEIHQKDFVNWLLAQKC (bridge 16-20; not fully specified (C-terminus)) [triple agonist of SEQ ID NO: 90]
Outgoing: met
